Source listed as PubChem BioAssay (NCI).

Tested on: HS 578T breast
Experiment: NCI-60 one-dose screen, 48 h
Settings: 10 µM unless noted
This is part of a sample that, as a whole, favours compounds with a hit. Of some 83,000 tested, about 20% had one in any assay. Calls of active or inactive are those of the source. The calls were made as follows: active = growth percent below 10; inactive = the rest.
Respond with a class label; see active, inactive

Reference set (6 entries):
| compound | category-label |
| --- | --- |
| C#C[C@@]1(O)[C@@H](CO)O[C@@H](n2ccc3c(N)ncnc32)[C@@H]1O | inactive |
| O=C(Nc1ccc2ncnc(Nc3cccc(C(F)(F)F)c3)c2c1)c1cccs1 | inactive |
| Cc1[nH]c2ncnc(Oc3ccc(NC(=O)Nc4ccc(Cl)c(C(F)(F)F)c4)cc3)c2c1C | inactive |
| Cc1ccc(C2=N[C@H]3CCC[C@@H]3N(c3ccccc3)C(C(Cl)Cl)=N2)cc1 | inactive |
| COc1ccc2nc(-c3ccc(Cl)cc3)cc(C(=O)N3N=C(c4ccc(N)cc4)CC3c3ccccc3)c2c1 (centres undefined) | inactive |
| CCCCc1ccc(N=Nc2ccc(OCC[N+](C)(C)C)cc2)cc1 | inactive |

Now turn to the next compound.
Query :: Outcome? N#CC(C#N)=C1NC(c2ccccc2)=C(c2ccccc2)C(c2ccccc2Cl)=C1C#N
Result :: inactive

---

System: TK-10 renal
Assay: NCI-60 one-dose screen, 48 h
Settings: 10 µM unless noted
The panel holds about 83,000 compounds, 20% with a hit somewhere; the sample as a whole holds those more often. Activity calls are given as the source filed them. Rule for the calls: active = growth percent below 10; inactive = the rest.
Respond with a class label; see active, inactive

Reference set (3 entries):
| compound | category-label |
| --- | --- |
| COc1cc(-c2csc(NC(=O)Nc3cc(Cl)cc(Cl)c3)n2)cc(OC)c1OC | active |
| O=C(CCl)N1CCCc2ccccc21 | inactive |
| C=C(C)[C@@H]1CC[C@]2(C(=O)O)CC[C@]3(C)[C@H](CC[C@@H]4[C@@]5(C)C[C@@H](CC#Cc6ccccc6C)C(=O)C(C)(C)[C@@H]5CC[C@]43C)[C@@H]12 | inactive |

Query :: Outcome? C[C@H](Oc1cc(-c2cnn(C3CCNCC3)c2)cnc1N)c1c(Cl)ccc(F)c1Cl
Result :: inactive

Query :: Outcome? [2H]c1cc2c(c([2H])c1F)/C(=C/c1[nH]c(C)c(C(=O)NCCN(CC)CC)c1C)C(=O)N2
Result :: inactive

Query :: Outcome? Cc1cccc2nc3c(n12)C(=O)C(=O)c1ccccc1-3
Result :: inactive

Query :: Outcome? COC(=O)/C=C/c1cc(OC(C)=O)c2c(c1)C(C(=O)OC)C(c1ccc(OC(C)=O)c(OC(C)=O)c1)O2 (stereo unspecified)
Result :: inactive

Query :: Outcome? O=C1Nc2ccccc2C12C=C(c1ccccc1)Nc1c2c(-c2ccccc2)nn1-c1ccccc1 (stereo unspecified)
Result :: inactive

---

Entries and their measured growth follow.
Tested on: UO-31 renal
Test: NCI-60 one-dose screen, 48 h (100 = growth as untreated, 0 = no growth, -100 = all killed)
Details: 10 µM unless noted
Compounds without any hit were thinned out: in the full panel of roughly 83,000, 20% have a hit.
Only the number, expressed in %, is required.

// solved cases for growth follow
| compound | observed-property | endpoint-result |
| --- | --- | --- |
| COc1ccccc1-c1ccc2nc(NC(=O)Nc3cc(C(F)(F)F)cc(C(F)(F)F)c3)sc2c1 | growth | 13.1 |
| COc1ccc(N(C)c2nc(Cl)nc3ccn(C)c23)cc1 | growth | 45 |
| COc1cc(-c2csc(NC(=O)Nc3ccc(Cl)cc3)n2)cc(OC)c1OC | growth | 16.9 |

The compound listed as Nc1cc(N)c(S(=O)(=O)O)cc1N=Nc1cc([N+](=O)[O-])ccc1O has a reported growth of 89.4

The compound listed as Cc1cccc(C)c1NCc1nnc(-c2ccc(O)cc2)o1 has a reported growth of 85.5

---

Entries and their measured growth follow.
Test system: SR leukemia
Test: NCI-60 one-dose screen, 48 h (100 = growth as untreated, 0 = no growth, -100 = all killed)
Details: 10 µM unless noted
Procedure: Growth inhibition of the SR human tumor cell line is measured as a screen for anti-cancer activity. Cells are grown in 96 well plates and exposed to the test compound for 48 hours. Compounds are tested at a single concentration, which is 10^-5 M for most compounds. The reported endpoint is percent growth (GI% or GIPRCNT), where numbers from 0 - 100% represent growth inhibition, and numbers from -100% - 0 represent cell death. For example, a value of 40 represents 60% growth inhibition. […]
Compounds without any hit were thinned out: in the full panel of roughly 83,000, 20% have a hit.
Only the number, expressed in %, is required.

| compound | growth (%) |
| --- | --- |
| COC(=O)CCc1cc(O)c2c(c1)[C@@H](C(=O)OC)[C@H](c1ccc(O)c(O)c1)O2 | 36 |
| CCCCn1c(=O)c(/C=C/C(=O)/C=C/c2ccc(OC)cc2)cc2cc(Cl)ccc21 | 3.16 |
| O=c1c2ccccc2n(CC(O)CN2CCCC2)c2c(Br)cccc12 (stereo unspecified) | 77 |

The compound listed as CCOC(=O)c1cnn(-c2nc(-c3ccc(F)cc3)c(C#N)c(N3CCOCC3)n2)c1N has a reported growth of 81.9

The compound listed as CC(C)(C#N)c1cc(F)cc(C(=O)Nc2cc(Nc3ncccc3-c3ncnc4nc[nH]c34)ccc2F)c1 has a reported growth of 35.5

The compound listed as CNc1cccc2c1C(=O)c1cccc(N)c1C2=O has a reported growth of 9.01

The compound listed as C#C[C@@]1(O)[C@@H](CO)O[C@@H](n2cc(Br)c3c(N)ncnc32)[C@@H]1O has a reported growth of -1.01

The compound listed as Cc1nccc2c3ccc(OCc4cn(-c5ccccc5)nn4)cc3n(CCCc3ccccc3)c12 has a reported growth of 33.5

The compound listed as OCCNc1nc(NCCO)nc(Nc2ccc(C3=NN(c4cc(Cl)cc(Cl)c4)C(c4ccc(C(F)(F)F)cc4)C3)cc2)n1 (stereo unspecified) has a reported growth of 4.83

The compound listed as N#Cc1ccc(Oc2ccc3ccc(=O)oc3c2)cc1 has a reported growth of 82.9

---

System: OVCAR-8 ovarian
Assay: NCI-60 one-dose screen, 48 h (100 = growth as untreated, 0 = no growth, -100 = all killed)
Conditions: 10 µM unless noted
The panel holds about 83,000 compounds, 20% with a hit somewhere; the sample as a whole holds those more often.
observed-property: growth (%)
Only the number, expressed in %, is required.

// solved cases for growth follow
| compound | growth, % |
| --- | --- |
| COc1cc(-c2nn(-c3ccc(Br)cc3)cc2CO)ccc1O | 94.9 |
| O=C(C[n+]1cccc2cc(Cl)ccc21)c1ccc2c(c1)CCCC2 | 25.6 |
| COc1cc2nc3c(=O)n(CCN(C)C)cnn3c(=O)c2cc1OC | 111 |
| C#CC[C@@H]1C[C@]2(C)[C@H]3CC[C@@H]4[C@H]5[C@H](C(=C)C)CC[C@]5(C(=O)O)CC[C@@]4(C)[C@]3(C)CC[C@H]2C(C)(C)[C@H]1O | 45.8 |
| CCCn1c2cc(OCc3cn(-c4ccc(Cl)cc4)nn3)ccc2c2ccnc(C)c21 | 49.9 |

Moving on to the next compound.
Considering CCSc1nc(Cl)c(C#N)c(-c2ccc(F)cc2)n1 , its growth with OVCAR-8 ovarian was recorded as 90.2

---

Entries and their measured growth follow.
Tested on: HOP-62 NSCLC
Experiment: NCI-60 one-dose screen, 48 h (100 = growth as untreated, 0 = no growth, -100 = all killed)
Details: 10 µM unless noted
Compounds without any hit were thinned out: in the full panel of roughly 83,000, 20% have a hit.
Only the number, expressed in %, is required.

| entry-smiles | growth, % |
| --- | --- |
| CC(/C=C/c1ccccc1)=N/NC(=O)c1ccncc1 | 103 |
| c1ccc(-c2n(Cc3ccc4ccccc4n3)cc[n+]2Cc2ccc3ccccc3c2)cc1 | 16.5 |
| C=C1C(=O)O[C@H]2[C@H]1CC/C(COC(=O)c1cccnc1N)=C\CC[C@@]1(C)O[C@@H]21 | 22.8 |

The compound listed as C=C(C)[C@@H]1CC[C@]2(C(=O)O)CC[C@]3(C)[C@H](CC[C@@H]4[C@@]5(C)C[C@@H](CC#Cc6ccc(Cl)cc6)C(=O)C(C)(C)[C@@H]5CC[C@]43C)[C@@H]12 has a reported growth of 54.7

The compound listed as Cc1cc(O)cc(O)c1N=NC1=NCCS1 has a reported growth of 95.7

---

Tested on: HOP-92 NSCLC
Assay: NCI-60 one-dose screen, 48 h
Settings: 10 µM unless noted
About 83,000 compounds went through this panel and 20% of them were active in at least one assay; those are over-represented in the sample as a whole. Activity calls are given as the source filed them. How the source made its calls: active means growth percent below 10; inactive means the rest.
Respond with a class label; see active, inactive

Reference set (5 entries):
| molecule | category-label |
| --- | --- |
| COc1ccc(/C=C(/C(=O)N2CCN(Cc3ccccc3)CC2)c2cc(OC)c(OC)c(OC)c2)cc1O | inactive |
| COc1ccc(-c2nnc(N3CCN(C(=O)CN4CCN(c5ccc(OC)cc5)CC4)CC3)nc2-c2ccc(OC)cc2)cc1 | active |
| COc1ccc(C(=S)c2cc(OC)c(OC)c(OC)c2)cc1OC(=O)CCl | inactive |
| COCCc1n(Cc2ccc3ccccc3c2)c2ccccc2[n+]1Cc1ccc2ccccc2c1 | active |
| COc1ccc(NC(=O)c2sc3nc(C)c(C(C)=O)cc3c2N)cc1 | inactive |

Query :: Outcome? CS(=O)(=O)O[C@@H]1C(=O)N(c2cc3c4ccccc4ccc3c3ccccc23)[C@H]1c1ccc(F)cn1
Result :: inactive

Query :: Outcome? C=C1C(=O)O[C@H]2[C@H]1CC/C(COC(=O)/C=C/c1cccnc1)=C\CC[C@@]1(C)O[C@@H]21
Result :: inactive

Query :: Outcome? CSc1nc(-c2cccs2)c2c(N)[nH]nc2n1
Result :: inactive

Query :: Outcome? CCSc1ccc(C2C(Br)C(=O)N2c2cc(OC)c(OC)c(OC)c2)cc1 (stereo not drawn)
Result :: inactive

Query :: Outcome? O=c1c2ccccc2oc2ccc(OCCCCCCN3CCCCCC3)cc12
Result :: inactive
